biological target: HCV NS3 helicase (Hepatitis C virus genotype 1b, UniProt P26663); construct: full-length NS3 (1-631), purified at Array BioPharma; test: HCV Helicase Prompt FRET Assay (Example A); format: biochemical; settings: numeric bound instead of class symbol; read-out: IC50 Activity
Sequence (P26663 1027-1657): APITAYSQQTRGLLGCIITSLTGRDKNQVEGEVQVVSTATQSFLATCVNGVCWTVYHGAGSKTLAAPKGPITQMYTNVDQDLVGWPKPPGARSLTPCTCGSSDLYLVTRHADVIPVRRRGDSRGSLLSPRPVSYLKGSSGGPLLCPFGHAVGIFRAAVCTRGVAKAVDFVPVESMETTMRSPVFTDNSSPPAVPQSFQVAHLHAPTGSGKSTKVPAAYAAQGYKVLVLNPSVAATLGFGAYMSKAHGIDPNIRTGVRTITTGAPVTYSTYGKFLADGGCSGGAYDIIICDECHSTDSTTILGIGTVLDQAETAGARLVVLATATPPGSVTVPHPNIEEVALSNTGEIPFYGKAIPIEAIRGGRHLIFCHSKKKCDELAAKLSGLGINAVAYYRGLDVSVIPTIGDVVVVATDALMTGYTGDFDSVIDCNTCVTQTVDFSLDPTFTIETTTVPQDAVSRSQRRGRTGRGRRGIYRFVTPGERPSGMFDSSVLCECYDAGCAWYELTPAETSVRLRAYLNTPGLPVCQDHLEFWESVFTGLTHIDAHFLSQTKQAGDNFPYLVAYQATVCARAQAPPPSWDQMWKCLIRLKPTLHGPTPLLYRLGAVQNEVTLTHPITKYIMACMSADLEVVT
observable: IC50

Q: Please give the measured IC50 for this compound: COC(=O)C(c1ccc([N+](=O)[O-])cc1C)C1CN(c2ccc([N+](=O)[O-])cc2C)c2ccc(Br)cc21 (stereo not shown)
Result: > 20 µM

----------
biological target: HCV NS3 helicase (Hepatitis C virus genotype 1b); construct: full-length NS3 (1-631), purified at Array BioPharma; test: HCV Helicase Prompt FRET Assay (Example A); assay type: biochemical; details: Table 21, compounds made using Scheme 28; read-out: IC50 Activity
pIC50: −log10 of the molar value.
Can you tell me pIC50 for the items I'm about to list?

Hi team, please reply with pIC50 for each item in this list.
1. COc1ccc(N(C)c2ccc(Cn3cc(CC(=O)O)c4ccccc43)cc2)cc1OC
2. CN(c1cccc(Cn2cc(CC(=O)O)c3ccccc32)c1)c1ccc(Cl)cc1Cl
3. CN(c1ccc(Cn2cc(CC(=O)O)c3ccccc32)cc1)c1ccc(Cl)c(Cl)c1

Result:
1: 4.30 to 5.00; 2: > 5.00; 3: > 5.00
